# target-of-assay: T1, purified recombinant IFNAR-1 extracellular fragment (human, UniProt P17181 28-436)
# T1 construct: extracellular domain; also called soluble IFNAR-1; soluble IFNAR
# T1 sequence (looked up): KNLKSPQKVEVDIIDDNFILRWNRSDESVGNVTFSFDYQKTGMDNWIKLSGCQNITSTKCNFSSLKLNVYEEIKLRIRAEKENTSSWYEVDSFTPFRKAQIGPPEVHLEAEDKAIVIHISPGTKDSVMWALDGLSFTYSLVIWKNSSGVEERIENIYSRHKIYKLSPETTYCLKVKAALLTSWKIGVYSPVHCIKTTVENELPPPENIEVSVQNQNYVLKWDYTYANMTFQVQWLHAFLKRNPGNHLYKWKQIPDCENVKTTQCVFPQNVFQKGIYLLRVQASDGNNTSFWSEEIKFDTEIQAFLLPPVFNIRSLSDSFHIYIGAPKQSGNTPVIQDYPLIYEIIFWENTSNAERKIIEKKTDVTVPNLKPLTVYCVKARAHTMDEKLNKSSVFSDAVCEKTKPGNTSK
# run-description: Biacore, maximal association on IFNAR-1 relative to M3K1
quantity-kind: % activity relative to M3K1 (%)
Reply with just the number (in %).

Below are worked cases with known answers.
binder	meas-value
M3-11 (X = C) heavy chain with K1 light chain (antibody, V domains shown, Position counted within VH CDR3; also called M3-11 C) VH: EVQLLESGGGLVQPGGSLRLSCAFSGFTLSTSGMGIGWVRQAPGKGLEWVAHIWWDDDKYYNPSLKSRFTISRDTSKNTVYLQMNSLRAEDTAVYYCARNYYPYDAWFDCWGQGTLVTVS VL: DIQMTQSPSSLSASVGDRVTITCSASSSINSNHLHWYQQKPGKAPKLLIYRTSILASGVPSRFSGSGSGTSFTLTISSLQPEDFATYYCQQGSNIPFTFGQGTKVEIK	64
M3-11 (X = H) heavy chain with K1 light chain (antibody, V domains shown, Position counted within VH CDR3; also called M3-11 H) VH: EVQLLESGGGLVQPGGSLRLSCAFSGFTLSTSGMGIGWVRQAPGKGLEWVAHIWWDDDKYYNPSLKSRFTISRDTSKNTVYLQMNSLRAEDTAVYYCARNYYPYDAWFDHWGQGTLVTVS VL: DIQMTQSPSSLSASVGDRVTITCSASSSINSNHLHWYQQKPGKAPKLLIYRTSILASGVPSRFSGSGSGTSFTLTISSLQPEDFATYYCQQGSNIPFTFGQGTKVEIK	104
M3-11 (X = K) heavy chain with K1 light chain (antibody, V domains shown, Position counted within VH CDR3; also called M3-11 K) VH: EVQLLESGGGLVQPGGSLRLSCAFSGFTLSTSGMGIGWVRQAPGKGLEWVAHIWWDDDKYYNPSLKSRFTISRDTSKNTVYLQMNSLRAEDTAVYYCARNYYPYDAWFDKWGQGTLVTVS VL: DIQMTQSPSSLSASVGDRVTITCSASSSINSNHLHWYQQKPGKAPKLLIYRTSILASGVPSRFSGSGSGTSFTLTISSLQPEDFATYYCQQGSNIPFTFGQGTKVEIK	82

**Q:** # lookup: % activity relative to M3K1 of M3-11 (X = R) heavy chain with K1 light chain (antibody, V domains shown, Position counted within VH CDR3; also called M3-11 R) VH: EVQLLESGGGLVQPGGSLRLSCAFSGFTLSTSGMGIGWVRQAPGKGLEWVAHIWWDDDKYYNPSLKSRFTISRDTSKNTVYLQMNSLRAEDTAVYYCARNYYPYDAWFDRWGQGTLVTVS VL: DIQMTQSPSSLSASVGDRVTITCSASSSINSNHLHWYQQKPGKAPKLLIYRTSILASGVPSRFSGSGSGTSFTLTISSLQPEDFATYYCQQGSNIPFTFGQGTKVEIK
**A:** 220

**Q:** # lookup: % activity relative to M3K1 of M3-11 (X = D) heavy chain with K1 light chain (antibody, V domains shown, Position counted within VH CDR3; also called M3-11 D) VH: EVQLLESGGGLVQPGGSLRLSCAFSGFTLSTSGMGIGWVRQAPGKGLEWVAHIWWDDDKYYNPSLKSRFTISRDTSKNTVYLQMNSLRAEDTAVYYCARNYYPYDAWFDDWGQGTLVTVS VL: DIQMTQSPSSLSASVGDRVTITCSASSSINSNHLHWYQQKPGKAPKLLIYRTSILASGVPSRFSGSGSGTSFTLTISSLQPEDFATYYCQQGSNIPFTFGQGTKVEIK
**A:** 67

Origin of values: patent US20050208041A1
